Test system: DIPGX29 (H3.3 K27M diffuse intrinsic pontine glioma line)
Procedure Summary: growth inhibition (% activity, log2 RLU normalised to DMSO / staurosporine); higher = more growth inhibition
Experimental Setup: 33 µM
Property: growth inhibition; scope: individual compounds

Compound: Cc1c(N)nc(C(CC(N)=O)NCC(N)C(N)=O)nc1C(=O)NC(C(=O)NC(C)C(O)C(C)C(=O)NC(C(=O)NCCc1nc(-c2nc(C(=O)NCCC[S+](C)C)cs2)cs1)C(C)O)C(O[C@@H]1O[C@@H](CO)[C@@H](O)[C@H](O)[C@@H]1O[C@H]1O[C@H](CO)[C@@H](O)[C@H](OC(N)=O)[C@@H]1O)c1cnc[nH]1 (stereo not given in full)
growth inhibition / %: 3.71
--
Compound: NCC(CC(=O)O)c1ccc(Cl)cc1 (stereo not given)
growth inhibition / %: 1.57
--
Compound: Cc1cccc(Cc2c[nH]cn2)c1C
growth inhibition / %: 1.63
--
Compound: CC(NC(C)(C)C)C(=O)c1cccc(Cl)c1 (stereo not given)
growth inhibition / %: -0.525
--
Compound: CN1[C@@H]2C[C@@H](OC(=O)[C@H](CO)c3ccccc3)C[C@H]1[C@@H]1O[C@@H]12
growth inhibition / %: -4.79
--
Compound: OC(c1ccccc1)(c1ccccc1)C1CCNCC1
growth inhibition / %: 0.581
--
Compound: CCC1(c2cccc(O)c2)CCCCN(C)C1 (stereo not given)
growth inhibition / %: 0.813
--
Compound: CN(C)C1C(=O)C(C(N)=O)=C(O)C2(O)C(=O)C3=C(O)c4c(O)cccc4C(C)(O)C3CC12 (stereo not given)
growth inhibition / %: -1.53
--
Compound: CCC(COC(=O)c1cc(OC)c(OC)c(OC)c1)(c1ccccc1)N(C)C (stereo not given)
growth inhibition / %: 7.04
--
Compound: CCC1(c2ccc(N)cc2)CCC(=O)NC1=O (stereo not given)
growth inhibition / %: -0.867
--
Compound: Cc1cccc(C)c1NC(=O)CN1CCCC1=O
growth inhibition / %: -3.64
--
Compound: C[C@]12CC[C@H](O)CC1=CC[C@@H]1[C@@H]2CC[C@]2(C)C(=O)CC[C@@H]12
growth inhibition / %: 2.61
--
Compound: CC[C@@]1(O)C(=O)OCc2c1cc1n(c2=O)Cc2cc3ccccc3nc2-1
growth inhibition / %: 11.8
--
Compound: C[C@]12CCC(=O)C=C1C=C[C@@H]1[C@@H]2CC[C@@]2(C)[C@H]1CC[C@@]2(O)CCC(=O)O
growth inhibition / %: 0.155
--
Compound: CCC1=C[C@H]2CN3CCc4c([nH]c5ccccc45)[C@](C(=O)OC)(C2)[C@H]13
growth inhibition / %: -4.07
--
Compound: C[C@]12CC[C@H]3[C@@H](CC[C@@]45O[C@@H]4C(O)=C(C#N)C[C@]35C)[C@@H]1CC[C@@H]2O
growth inhibition / %: 0.975
--
Compound: CC(=O)OC12COC1CC(O)C1(C)C(=O)C(O)C3=C(C)C(O)CC(O)(C(OC(=O)c4ccccc4)C21)C3(C)C (stereo not given)
growth inhibition / %: 7.46
--
Compound: O=P1(NCCCl)OCCCN1CCCl (stereo not given)
growth inhibition / %: -2.21
--
Compound: N.N.[Cl][Pt][Cl]
growth inhibition / %: -1.13
--
Compound: c1ccc2c(c1)sc1ccccc12
growth inhibition / %: -2.47

The measurements presented in this section are drawn from the supplement of paper PMC8253809.
